Reference source: patent US10112929B2

Record set of pIC50 for target or system ROCK2 (Homo sapiens (Human)).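 Further: rho kinase enzyme reaction halted with EDTA, phospho- and non-phospho peptide separated for read-out, kinase activity inhibition derived across a dose-response series, DMSO under 2%.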
pIC50: −log10 of the molar value.

Look over these answered cases.
COc1ccc(NC2CCN(c3ccc(-c4cn[nH]c4)cc3)C2=O)c(F)c1 (single isomer, unassigned) = 5.66 to 7.00
COc1ccc(F)c(NC2CCN(c3ccc(-c4cn[nH]c4)cn3)C2=O)c1 (single isomer, unassigned) = 7.00 to 8.00
COc1cc(NC2CCN(c3ccc(-c4cn[nH]c4)cc3)C2=O)cc(OC)c1 (single isomer, unassigned) = 5.66 to 7.00
COc1cccc(NC2CCN(c3ccc(-c4cn[nH]c4)c(OC)c3)C2=O)c1 (single isomer, unassigned) = > 8.00
COc1cccc(NC2CCN(c3ccc(-c4cn[nH]c4)cc3F)C2=O)c1 (single isomer, unassigned) = 7.00 to 8.00

Look up and report pIC50, with ROCK2 (Homo sapiens (Human)) as system, for O=C1C(Nc2ccc3c(c2)OC(F)(F)O3)CCN1c1ccc(-c2cn[nH]c2)cc1 (single isomer, unassigned) 5.66 to 7.00

Look up and report pIC50, with ROCK2 (Homo sapiens (Human)) as system, for CNc1nc(N2CCC(Nc3cccc(OC)c3)C2=O)ccc1-c1cn[nH]c1 (single isomer, unassigned) 7.00 to 8.00
